# credit: patent US12378224B2

- tested system: human c-MER catalytic domain (Homo sapiens (Human), UniProt Q12866)
- Sequence (Q12866 587-858): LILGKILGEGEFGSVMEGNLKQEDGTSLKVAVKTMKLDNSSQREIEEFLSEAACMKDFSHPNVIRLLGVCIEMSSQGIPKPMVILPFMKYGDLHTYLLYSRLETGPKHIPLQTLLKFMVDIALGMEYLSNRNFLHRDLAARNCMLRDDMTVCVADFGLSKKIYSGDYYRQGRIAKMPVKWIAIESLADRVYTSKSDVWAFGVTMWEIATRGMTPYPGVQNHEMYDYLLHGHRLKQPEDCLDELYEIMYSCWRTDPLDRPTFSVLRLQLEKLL
- test method notes: TR-FRET Kinase Activity Biochemical Assay (LanthaScreen)
- details: 10 uM ATP, 1 hour, kinase not given
result type: IC50

CCOC(=O)C1CN(C(=O)c2ccc(-c3ccccc3)cc2)CC1NC(=O)c1cc(-c2cnn(C)c2)cnc1N (stereo not shown) [Example 687]: > 1000 nM
Cn1cc(-c2cnc(N)c(C(=O)N[C@@H]3CCN(C(=O)c4ccc(-c5cccc(C=O)c5)cc4)C3)c2)cn1 [Example 382]: 10 to 100 nM
Cn1cc(-c2cnc(N)c(C(=O)NC3CN(C(=O)c4cccc(-c5ccccc5)c4)C3)c2)cn1 [Example 670]: > 1000 nM

Alright, here's another compound for you.
Answer with the recorded IC50 for the compound listed here: CN(C)c1ccc(Oc2ccc(-c3ccc(C(=O)N4CC[C@@H](NC(=O)c5cc(-c6cnn(C)c6)cnc5N)C4)cc3)cc2)cc1 [Example 529] 10 to 100 nM

---

- tested system: human c-MER catalytic domain (Homo sapiens (Human))
pIC50: −log10 of the molar value.
result type: pIC50

Examples with their reported pIC50 follow.
Cn1cc(-c2cnc(N)c(C(=O)N[C@@H]3CCN(C(=O)O[C@H]4CCC[C@@H]4OCc4ccccc4)C3)c2)cn1 [Example 120]: < 6.00
Cn1cc(-c2cnc(N)c(C(=O)N[C@@H]3CCN(C(=O)Oc4cccc(-c5cccc(CN6CCC(N)CC6)c5)c4)C3)c2)cn1 [Example 340]: 6.00 to 7.00

Annotate the compound CN1CCN(Cc2ccc(Oc3ccc(OC(=O)N4CC[C@@H](NC(=O)c5cc(-c6cnn(C)c6)cnc5N)C4)cc3)cc2)CC1 [Example 113] with its measured pIC50. 6.00 to 7.00

Identify measured pIC50 corresponding to CN1CCC(NCc2ccc(-c3ccc(C(=O)N4CC[C@@H](NC(=O)c5cc(-c6cnn(C)c6)cnc5N)C4)cc3)cc2)CC1 [Example 549] 6.00 to 7.00

Answer with the recorded pIC50 of Cn1cc(-c2cnc(N)c(C(=O)N[C@@H]3CCN(C(=O)c4ccc(-c5ccc(C(F)(F)F)cc5C(F)(F)F)cc4)C3)c2)cn1 [Example 374] only. < 6.00

Give pIC50 for Cn1cc(-c2cnc(N)c(C(=O)N[C@@H]3CCN(C(=O)Cc4cccc(Br)c4)C3)c2)cn1 [Example 421] < 6.00

Read off the recorded pIC50 for Cn1cc(-c2cnc(N)c(C(=O)N[C@H]3CN(C(=O)c4ccc(-c5ccccc5)cc4)C[C@@H]3O)c2)cn1 [Example 742] 6.00 to 7.00

Query pIC50 for Cn1cc(-c2cnc(N)c(C(=O)N[C@@H]3CCN(C(=O)OC4CCCN(c5ccc(C=O)cc5)C4)C3)c2)cn1 (stereo partly shown) [Example 123] < 6.00

Tell me pIC50 reported for CN1CCN(Cc2ccc(-c3cccc(CCN4CC[C@@H](NC(=O)c5cc(-c6cnn(C)c6)cnc5N)C4)c3)cc2)CC1 [Example 253] < 6.00

Give recorded pIC50. CN(C)CCCOc1ccc2ccc(OC(=O)N3CC[C@@H](NC(=O)c4cc(-c5cnn(C)c5)cnc4N)C3)cc2c1 [Example 295] 7.00 to 8.00

Give a short answer stating reported pIC50 for CSc1ccc(-c2ccc(C(=O)N3CC[C@@H](NC(=O)c4cc(-c5cnn(C)c5)cnc4N)C3)cc2)cc1 [Example 665] . 6.00 to 7.00

Consider the compound Cn1cc(-c2cnc(N)c(C(=O)N[C@@H]3CCN(C(=O)Oc4cccc(-c5ccccc5)c4)C3)c2)cn1 [Example 117] and give its recorded pIC50. 7.00 to 8.00

Identify measured pIC50 corresponding to Cn1cc(-c2cnc(N)c(C(=O)N[C@@H]3CCN(Cc4ccccc4-c4ccc(CO)cc4)C3)c2)cn1 [Example 248] 6.00 to 7.00

Supply measured pIC50 of Cn1cc(-c2cnc(N)c(C(=O)N[C@@H]3CCN(C(=O)Oc4cccc(-c5cccc(C(=O)NCCC#N)c5)c4)C3)c2)cn1 [Example 277] in your reply. 6.00 to 7.00

Please report the measured pIC50 for Cc1ccc(N2CC[C@@H](NC(=O)c3cc(-c4cnn(C)c4)cnc3N)C2)cc1 [Example 134] < 6.00

Return value of pIC50 for input Cn1cc(-c2cnc(N)c(C(=O)N[C@@H]3CCN(C(=O)c4cccc5c4oc4ccccc45)C3)c2)cn1 [Example 501] , no commentary. < 6.00

Given the compound CC1CC(C)CC(OC(=O)N2CC[C@@H](NC(=O)c3cc(-c4cnn(C)c4)cnc3N)C2)C1 (stereo partly shown) [Example 79] , write its reported pIC50. < 6.00

Give reported pIC50 value for CCOC(=O)C1CN(C(=O)c2ccc(-c3ccc(F)cc3Cl)cc2)CC1NC(=O)c1cc(-c2cnn(C)c2)cnc1N (stereo not shown) [Example 690] < 6.00

---

A short record of IC50 observed with human c-MER catalytic domain (Homo sapiens (Human), UniProt Q12866) follows.

Cn1cc(-c2cnc(N)c(C(=O)N[C@@H]3CCN(C(=O)Oc4cccc(-c5ccc(CN6CC[C@@H](N)C6)cc5)c4)C3)c2)cn1 [Example 330]: 0.01 to 0.1 µM
Cn1cc(-c2cnc(N)c(C(=O)N[C@@H]3CCN(C(=O)OC4CCN(c5ccccc5)C4)C3)c2)cn1 (stereo partly shown) [Example 126]: > 1 µM

Kindly indicate its recorded IC50. Item: Cn1cc(-c2cnc(N)c(C(=O)N[C@@H]3CCN(C(=O)Oc4ccc5ccc(OC6CCNCC6)cc5c4)C3)c2)cn1 [Example 294] 0.01 to 0.1 µM

Supply measured IC50 of Cn1cc(-c2cnc(N)c(C(=O)N[C@@H]3CCN(C(=O)O[C@@H]4CCN(c5ccccc5)C4)C3)c2)cn1 [Example 127] in your reply. > 1 µM

Specify measured IC50 for CC(C)(c1ccc(-c2cnc(N)c(C(=O)N[C@@H]3CCN(C(=O)c4ccc(-c5ccccc5)cc4)C3)c2)cc1)N1CCNCC1 [Example 564] . < 0.01 µM

In one line, give reported IC50 of the entry CC(=O)n1ccc2c(C(=O)N3CC[C@@H](NC(=O)c4cc(-c5cnn(C)c5)cnc4N)C3)cccc21 [Example 514] . > 1 µM

---

Catalogue of pIC50 readings, one per entry.
- tested system: human c-MER catalytic domain (Homo sapiens (Human), UniProt Q12866)
pIC50: −log10 of the molar value.

Consider the reported pIC50 for these molecules:
Cn1cc(-c2cnc(N)c(C(=O)N[C@@H]3CCN(C(=O)c4cccc(-c5cnn(S(=O)(=O)c6ccccc6)c5)c4)C3)c2)cn1: < 6.00
Cn1cc(-c2cnc(N)c(C(=O)N[C@@H]3CCN(C(=O)c4cccc(C5=CCCCC5)c4)C3)c2)cn1: < 6.00
CCc1ccccc1NC(=O)N1CC[C@@H](NC(=O)c2cc(-c3cnn(C)c3)cnc2N)C1: < 6.00
Cn1cc(-c2cnc(N)c(C(=O)N[C@@H]3CCN(C(=O)Oc4cccc(-c5ccc(CN6CCC(N)CC6)cc5)c4)C3)c2)cn1: 7.00 to 8.00
Cc1nn(C)c(C(F)(F)F)c1-c1ccc(C(=O)N2CC[C@@H](NC(=O)c3cc(-c4cnn(C)c4)cnc3N)C2)cc1: 6.00 to 7.00
Cn1cc(-c2cnc(N)c(C(=O)N[C@@H]3CCN(C(=O)Oc4cccc(-c5cccc(CN6CCCNCC6)c5)c4)C3)c2)cn1: 7.00 to 8.00
CN1CCC(Oc2ccc3ccc(OC(=O)N4CC[C@@H](NC(=O)c5cc(-c6cnn(C)c6)cnc5N)C4)cc3c2)CC1: 6.00 to 7.00
Cn1cc(-c2cnc(N)c(C(=O)N[C@@H]3CCN(CC(=O)c4ccccc4)C3)c2)cn1: < 6.00
Cn1cc(-c2cnc(N)c(C(=O)N[C@@H]3CCN(C(=O)C4Cc5ccccc5C4)C3)c2)cn1: < 6.00
Cn1cc(-c2cnc(N)c(C(=O)N[C@@H]3CCN(C(=O)Oc4ccc5cc(OCC6CCNCC6)ccc5c4)C3)c2)cn1: 7.00 to 8.00

Lab note: next molecule to report on.
Retrieve pIC50 measured for Cn1cc(-c2cnc3[nH]nc(N[C@@H]4CCN(C(=O)c5ccc(-c6ccc(OC7CCNCC7)cc6)cc5)C4)c3c2)cn1 and print it. > 8.00

---

human MER (528-end) (Homo sapiens (Human)): reported pIC50 for various molecules.
Sequence (Q12866 528-999 limits assumed): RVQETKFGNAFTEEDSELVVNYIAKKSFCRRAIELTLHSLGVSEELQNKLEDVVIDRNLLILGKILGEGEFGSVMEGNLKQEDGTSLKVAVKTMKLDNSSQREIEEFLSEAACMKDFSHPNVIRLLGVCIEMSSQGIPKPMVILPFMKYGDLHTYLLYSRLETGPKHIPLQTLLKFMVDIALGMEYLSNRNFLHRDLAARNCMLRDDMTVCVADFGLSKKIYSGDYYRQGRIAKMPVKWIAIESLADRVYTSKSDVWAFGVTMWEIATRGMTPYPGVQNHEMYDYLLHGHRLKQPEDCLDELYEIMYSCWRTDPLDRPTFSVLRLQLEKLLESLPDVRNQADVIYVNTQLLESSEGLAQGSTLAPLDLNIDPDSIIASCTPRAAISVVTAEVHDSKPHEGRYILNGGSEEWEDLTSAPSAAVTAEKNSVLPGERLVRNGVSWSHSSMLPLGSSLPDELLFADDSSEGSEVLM
pIC50: −log10 of the molar value.

Recorded results for 5 molecules are shown here.
Cn1cc(-c2cnc(N)c(C(=O)N[C@@H]3CCN(C(=O)c4ccc(-c5cc(Cl)ccc5Cl)cc4)C3)c2)cn1: 7.00 to 8.00
Nc1ncc(-c2ccc(CN3CCOCC3)cc2)cc1C(=O)N[C@@H]1CCN(C(=O)Nc2cccc(-c3ccccc3)c2)C1: 7.00 to 8.00
CCn1c(C(=O)N2CC[C@@H](NC(=O)c3cc(-c4cnn(C)c4)cnc3N)C2)cc2ccccc21: < 6.00
Cn1cc(-c2cnc(N)c(C(=O)N[C@@H]3CCN(C(=O)c4ccc5cccnc5n4)C3)c2)cn1: < 6.00
Cn1cc(-c2cnc(N)c(C(=O)N[C@@H]3CCN(C(=O)C4Cc5cc(Cl)ccc5O4)C3)c2)cn1 (stereo partly drawn): < 6.00

Answer briefly: pIC50 recorded on human MER (528-end) (Homo sapiens (Human)) for Cn1cc(-c2cnc(N)c(C(=O)N[C@@H]3CCN(C(=O)Oc4cccc(-c5ccc(O)cc5)c4)C3)c2)cn1 6.00 to 7.00

Determine reported pIC50 for CN(C(=O)c1cc(-c2cnn(C)c2)cnc1N)[C@@H]1CCN(C(=O)Oc2cccc(-c3ccccc3)c2)C1 ; test system: human MER (528-end) (Homo sapiens (Human)). < 6.00

Determine reported pIC50 for CCc1ccc(OC(=O)N2CC[C@@H](NC(=O)c3cc(-c4cnn(C)c4)cnc3N)C2)cc1 ; test system: human MER (528-end) (Homo sapiens (Human)). 6.00 to 7.00

Please respond with reported pIC50 (system human MER (528-end) (Homo sapiens (Human))) for CN1CCN(Cc2ccc(-c3ccc4cc(OC(=O)N5CC[C@@H](NC(=O)c6cc(-c7cnn(C)c7)cnc6N)C5)ccc4c3)cc2)CC1 . 6.00 to 7.00

Provide measured pIC50 on human MER (528-end) (Homo sapiens (Human)) for Cn1cc(-c2cnc(N)c(C(=O)N[C@@H]3CCN(C(=O)c4ccc(-c5ccc(C(C)(C)C)cc5)cc4)C3)c2)cn1 please. < 6.00
